test: PSAC antagonists in infected red cells, primary screen, cell-based, P. falciparum Indochina, OD700, 18 h (AID 1157); conditions: P. falciparum Indochina infected erythrocytes, osmotic lysis OD700, 18 h; higher = more signal, called active from +8 up or from −8 down
Readout: z-score
Reply with just the number.

As a guide, the following entries are already answered.
INSERT INTO results (compound, measured_number) VALUES
  ('COc1ccc([Si](C)(C)[C@@H]2[C@@H](CC(=O)N3CCC[C@H]3CO)O[C@]3(C(=O)N(Cc4ccc(N5CCC5=O)cc4)c4ccccc43)[C@H]2C)cc1', 0.77),
  ('CC(C)C(CO)N1C(=O)[C@@H]2[C@H]3C(=O)OCC=C[C@H]3OC23C=CCN(Cc2ccccc2)C(=O)[C@@H]13 (some centres not stated)', -0.16),
  ('C=CCNC(=O)[C@H]1[C@@H]2C(=O)O[C@@H](c3ccccc3)[C@@H](c3ccccc3)N2[C@@H](c2ccccc2OCCO)[C@]12C(=O)N(C(=O)OCCOC)c1ccc(C#CCCO)cc12', 0.875);

// query z-score value for entry `C[N+](C)(C)CCCC[C@@H]1NC(=O)[C@H]2C[C@@H](C(=O)NCCCCCN)[C@@H](c3cccc(OCCO)c3)N2C1=O`
0.57

Suppose we examine the compound CC(CO)N1C(=O)[C@@H]2C3C(=O)OCCC/C=C\[C@H]3OC23C=CCN(Cc2ccccc2)C(=O)[C@@H]13 (some centres not stated) ; what z-score value has been reported?
-0.899

Which z-score is reported for this compound? `CCCC[C@@H](O)C1=C(C)C[C@H]2C(=O)N(C)C(=O)[C@H]2[C@H]1CO`
-1.56

Given the compound `COC(=O)[C@@]1(CCC(=O)OC(C)(C)C)COC(c2ccc(OCCCO)cc2)=N1` , what is its reported z-score?
0.613

For the compound `COCCCN1C(=O)[C@@]2(Cc3ccccc31)c1ccccc1C(=O)N(Cc1ccccc1Cl)[C@H]2c1ccc(CO)cc1` , what z-score is on record?
-0.85

z-score lookup needed for `O=C1O[C@@H](c2ccccc2)[C@@H](c2ccccc2)N2[C@@H](c3ccc(OCCO)cc3)[C@]3(C(=O)Nc4ccc(C#CC5(O)CCCCCC5)cc43)[C@@H](C(=O)NC[C@H](O)c3ccccc3)[C@H]12` , thanks.
-0.863

Reported z-score, compound `CC(C)CNC(=O)[C@@H]1c2ccccc2C(=O)N(Cc2ccc(OC(F)(F)F)cc2)[C@H]1c1ccc(CO)cc1` : ____
-0.657

Look at this compound and give its reported z-score. C#CCN1C(C(=O)OCC)OC[C@H]1c1ccccc1 (some centres not stated)
-2.37

Look up z-score: `O=C(O)[C@H]1C[C@H]2C(=O)NCC(=O)N2[C@H]1c1cccc(OCCO)c1`
0.818
